Tested on: Pseudomonas aeruginosa (P. aeruginosa—ATCC #15442)
Experiment: Synergy test, microtiter plate high resolution MIC assay, bacterium
Type: cell-based
Details: P. aeruginosa 15442, M9GY, 48 hours
measure name: MIC of component acting alone (QA / QB) (ppm)
Lab book: enter the figure in ppm, no units written.

-- ask Given Cn1sccc1=O , respond with its MIC of component acting alone (QA / QB).
-- reply 30

-- ask Retrieve MIC of component acting alone (QA / QB) measured for CC(=O)c1c([O-])cc(C)oc1=O.[Na+] [Sodium dehydroacetic acid] and print it.
-- reply 10000

-- ask Give reported MIC of component acting alone (QA / QB) value for OCC(O)COc1ccc(Cl)cc1 (stereo not shown)
-- reply 4000

-- ask Identify MIC of component acting alone (QA / QB) associated with the compound CCCCCCC(O)CO (stereo not shown)
-- reply 3000

Reference source: patent US7468384B2
